- ASSAY_REMARKS: qHTS of pediatric cancer cell lines to identify multiple opportunities for drug repurposing: Confirmatory screen for OHS-50 cells (AID 1347128);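 further: compound exposure lasted 48 h at 37 degrees C; nearly all actives have a fitted effect of over 55% in size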
- MEASUREMENT_CONDITIONS: OHS-50 osteosarcoma cells viability; series mostly up to 45.9 µM
Inconclusive results are not listed. Activity calls are given as the source filed them. The call rests on the fitted dose curve; in most records, active means well fitted cell-killing curve with a large enough effect; inconclusive means small, poorly fitted or top-dose-only effect, or effect the other way; inactive means no such curve, though single readings can be large or run the other way.
Write down the outcome that applies. Available outcomes: yes (1) (active), no (0) (inactive)

Req: Assay outcome for CN[C@@H]1CN(c2ccc3c(=O)c(C(=O)O)cn(-c4nccs4)c3n2)C[C@@H]1OC : what was it?
Resp: yes (1)

Req: Assay outcome for CCC(=O)N1CCN(c2ccc(-n3c(=O)ccc4cnc5ccc(-c6cnc7ccccc7c6)cc5c43)cc2C(F)(F)F)CC1 : what was it?
Resp: no (0)

Req: Assay outcome for Cc1ccc2c(c1)C(=O)[C@]1(O)CCN(c3ccccc3)C1=N2 : what was it?
Resp: no (0)

Req: Assay outcome for CC(C)CN(C[C@H](O)[C@H](Cc1ccccc1)NC(=O)O[C@H]1CCOC1)S(=O)(=O)c1ccc(N)cc1 : what was it?
Resp: no (0)

Req: Assay outcome for COc1ccc2c(c1)c(C1=C(c3c[nH]c4ccccc34)C(=O)NC1=O)cn2CCCN(C)C : what was it?
Resp: yes (1)

Req: Assay outcome for C[C@@H]1[C@H](O)[C@@H](C)C=CC=CC=CC=CC=CC=CC=C[C@H](O[C@@H]2O[C@H](C)[C@H](O)[C@H](N)[C@@H]2O)C[C@@H]2O[C@](O)(C[C@@H](O)C[C@@H](O)[C@H](O)CC[C@@H](O)C[C@@H](O)CC(=O)O[C@H]1C)C[C@H](O)[C@@H]2C(=O)O : what was it?
Resp: no (0)

Req: Assay outcome for COc1cc2ncnc(Nc3cc(Br)c(O)c(Br)c3)c2cc1OC : what was it?
Resp: no (0)

Req: Assay outcome for CCC[C@H](Nc1nc(-c2ccc(NC(=O)NCC)c(OC)c2)ncc1C)c1cccnc1 : what was it?
Resp: yes (1)

Req: Assay outcome for CC1(C)OC2CC3C4CC(F)C5=CC(=O)C=CC5(C)C4C(O)CC3(C)[C@]2(C(=O)CO)O1 (stereo not given in full) : what was it?
Resp: no (0)

Req: Assay outcome for CON(C)C(=O)N1N=C(c2cc(F)ccc2F)S[C@]1(CCCN)c1ccccc1 : what was it?
Resp: yes (1)

Req: Assay outcome for OCCn1cc(-c2ccc3c(c2)CCC3=NO)c(-c2ccncc2)n1 : what was it?
Resp: no (0)

Req: Assay outcome for Cc1ccccc1-n1c(Cn2nc(-c3cccc(O)c3)c3c(N)ncnc32)nc2cccc(C)c2c1=O : what was it?
Resp: no (0)

Req: Assay outcome for Cc1csc(-c2nnc(Nc3ccc(Oc4ncccc4-c4ccnc(N)n4)cc3)c3ccccc23)c1 : what was it?
Resp: no (0)

Req: Assay outcome for C[C@@H]1O[C@@H](O[C@H]2CC[C@@]3(C)[C@H](CC[C@@H]4[C@H]3C[C@@H](O)[C@]3(C)[C@@H](C5=CC(=O)OC5)CC[C@]43O)C2)C[C@H](O)[C@@H]1O[C@H]1C[C@H](O)[C@H](O[C@H]2C[C@H](O)[C@@H](O)[C@@H](C)O2)[C@H](C)O1 (stereo in doubt) : what was it?
Resp: no (0)

Req: Assay outcome for C[C@@H]1C[C@H]2[C@@H]3CCC4=CC(=O)C=C[C@]4(C)[C@@]3(F)[C@@H](O)C[C@]2(C)[C@@]1(O)C(=O)CO : what was it?
Resp: no (0)

Where do the numbers come from? From PubChem BioAssay (NCATS).
